- system-name: NPY4R (Homo sapiens, UniProt P50391)
- Construct: purchased Promega (in-house HiBiT-GPCR construct library, NanoBRET)
- Sequence (P50391 whole entry): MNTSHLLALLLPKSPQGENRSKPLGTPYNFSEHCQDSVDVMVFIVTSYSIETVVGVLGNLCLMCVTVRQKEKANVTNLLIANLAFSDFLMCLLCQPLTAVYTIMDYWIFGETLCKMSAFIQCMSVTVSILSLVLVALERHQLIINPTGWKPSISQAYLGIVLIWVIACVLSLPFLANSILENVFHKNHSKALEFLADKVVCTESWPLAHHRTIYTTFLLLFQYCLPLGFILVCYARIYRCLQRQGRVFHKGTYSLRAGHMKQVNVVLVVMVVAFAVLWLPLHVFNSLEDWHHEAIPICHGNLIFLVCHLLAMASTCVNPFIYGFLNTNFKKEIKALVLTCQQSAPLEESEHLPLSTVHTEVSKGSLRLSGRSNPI
- assay-text: NanoBRET screen HiBiT-NPY4R in HEK293
- Format: binding
- condition-set: NPY4R; tracer 1μM
measure-name: NanoBRET Fold Response
Simply state the number, no unit and no words.

// solved cases for NanoBRET Fold Response follow
| compound | NanoBRET Fold Response |
| --- | --- |
| CC(C)N(CC[C@H](c1ccccc1)c1cc(CCNC(=O)c2ccc(CNC(=O)CCc3ccc4n3[B-](F)(F)[N+]3=C(c5ccc[nH]5)C=CC3=C4)cc2)ccc1O)C(C)C [Tolterodine-BZ-NB590] | 0.98 |
| COc1ccccc1N1CCN(CCCCN2C(=O)c3ccc(CNC(=O)CCOCCNC(=O)c4ccc(CNC(=O)CCc5ccc6n5[B-](F)(F)[N+]5=C(c7ccc[nH]7)C=CC5=C6)cc4)cc3C2=O)CC1 [NAN-190-3-NB590] | 0.95 |

I'm curious: which NanoBRET Fold Response was measured for Cc1nc2n(c(=O)c1CCN1CCC(c3noc4cc(F)ccc34)CC1)CCCC2OC(=O)NCCOCCOCCOCCOCCNC(=O)CCc1ccc2n1[B-](F)(F)[N+]1=C(c3ccc[nH]3)C=CC1=C2 (centres unmarked) [Risperidone-2-NB590] tested on NPY4R (Homo sapiens, UniProt P50391)?
1.02

I'm curious: which NanoBRET Fold Response was measured for O=C(CCc1ccc2n1[B-](F)(F)[N+]1=C(c3ccc[nH]3)C=CC1=C2)NCc1ccc(C(=O)NCCOCCC(=O)N[C@@H]2CC[C@@]3(O)[C@H]4Cc5ccc(O)c6c5[C@@]3(CCN4CC3CC3)[C@H]2O6)cc1 [Naltrexone-3-NB590] tested on NPY4R (Homo sapiens, UniProt P50391)?
0.91

I'm curious: which NanoBRET Fold Response was measured for O=C(CCOCCOCCOCCOCCNC(=O)CCc1ccc2n1[B-](F)(F)[N+]1=C(c3ccc[nH]3)C=CC1=C2)NCCCN1CCN(C2=Nc3ccccc3Oc3ccc(Cl)cc32)CC1 [Loxapine-a-2-NB590] tested on NPY4R (Homo sapiens, UniProt P50391)?
1.10

I'm curious: which NanoBRET Fold Response was measured for CCCn1c(=O)c2[nH]c(-c3ccc(OCC(=O)NCCNC(=O)CCOCCNC(=O)c4ccc(CNC(=O)CCc5ccc6n5[B-](F)(F)[N+]5=C(c7ccc[nH]7)C=CC5=C6)cc4)cc3)nc2n(CCC)c1=O [XAC-3-NB590] tested on NPY4R (Homo sapiens, UniProt P50391)?
0.86

I'm curious: which NanoBRET Fold Response was measured for O=C(CCc1ccc2n1[B-](F)(F)[N+]1=C(c3ccc[nH]3)C=CC1=C2)NCCOCCOCCNC(=O)OCCOCCN1CCN(C2=Nc3ccccc3Sc3ccccc32)CC1 [Quetiapine-a-2-NB590] tested on NPY4R (Homo sapiens, UniProt P50391)?
0.73

I'm curious: which NanoBRET Fold Response was measured for COc1ccccc1N1CCN(CCCCN2C(=O)c3ccc(CNC(=O)CCOCCOCCOCCOCCNC(=O)CCc4ccc5n4[B-](F)(F)[N+]4=C(c6ccc[nH]6)C=CC4=C5)cc3C2=O)CC1 [NAN-190-2-NB590] tested on NPY4R (Homo sapiens, UniProt P50391)?
1.04

I'm curious: which NanoBRET Fold Response was measured for Cc1cc2c(s1)Nc1ccccc1N=C2N1CCN(CCCNC(=O)CCOCCOCCOCCOCCNC(=O)CCc2ccc3n2[B-](F)(F)[N+]2=C(c4ccc[nH]4)C=CC2=C3)CC1 [Olanzapine-a-2-NB590] tested on NPY4R (Homo sapiens, UniProt P50391)?
0.91

I'm curious: which NanoBRET Fold Response was measured for CC(C)N(CC[C@H](c1ccccc1)c1cc(CCNC(=O)CCOCCOCCOCCOCCNC(=O)CCc2ccc3n2[B-](F)(F)[N+]2=C(c4ccc[nH]4)C=CC2=C3)ccc1O)C(C)C [Tolterodine-2-NB590] tested on NPY4R (Homo sapiens, UniProt P50391)?
1.09

I'm curious: which NanoBRET Fold Response was measured for N#CN=C(NCCCOc1cccc(CN2CCCCC2)c1)NCCNC(=O)CCOCCOCCOCCOCCNC(=O)CCc1ccc2n1[B-](F)(F)[N+]1=C(c3ccc[nH]3)C=CC1=C2 [Aminopotentidine-2-NB590] tested on NPY4R (Homo sapiens, UniProt P50391)?
0.98
